Species on record: Rattus norvegicus
method notes: Open TG-GATES - Regimen: Single
Type: toxicity, organism-based, Sprague-Dawley
Set-up: regimen Single, gender Male, age 6 weeks
experimental context: in vivo, po, 0 mg/kg, 6 h, tissue Blood, route gavage, dose level Control
Assign MCH to each entry below.
Give bare numbers, in pg.

Some compounds with known MCH results, for comparison:
1) CC(=O)Nc1nnc(S(N)(=O)=O)s1 [ACETAZOLAMIDE]: 20.8
2) Clc1c(Cl)c(Cl)c(Cl)c(Cl)c1Cl: 21.7

Hey, quick one: what's MCH for each of these?
1. CCOC(=O)[C@H](CCc1ccccc1)N[C@@H](C)C(=O)N1CCC[C@H]1C(=O)O
2. Cc1cccc(Nc2ccccc2C(=O)O)c1C
3. CN(C)[C@@H]1C(O)=C(C(N)=O)C(=O)[C@@]2(O)C(O)=C3C(=O)c4c(O)cccc4[C@@](C)(O)[C@H]3C[C@@H]12

[21.6, 22, 22]
